IC50 values, listed per item
Test system: SNU-475
EXPERIMENTAL_PROTOCOL: cells
Type: functional, cell-based
CONDITION_NOTES: Homo sapiens
Description: SANGER: Inhibition of human SNU-475 cell growth in a cell viability assay.

In the examples that follow, each entry is paired with its recorded IC50.
{"COMPOUND": "CO[C@@]12[C@H](COC(N)=O)C3=C(C(=O)C(C)=C(N)C3=O)N1C[C@@H]1N[C@@H]12", "QUANTITY_KIND": "IC50", "EXPERIMENTAL_RESULT": "813 nM"}
{"COMPOUND": "CC(O)(CS(=O)(=O)c1ccc(F)cc1)C(=O)Nc1ccc(C#N)c(C(F)(F)F)c1 (stereo not drawn) [BICALUTAMIDE]", "QUANTITY_KIND": "IC50", "EXPERIMENTAL_RESULT": "> 1020 nM"}

Below: the item to evaluate.
Prompt: So what's the measured IC50 for this one? `N#C/C(=C1/Nc2ccccc2S1)c1ccnc(NCCc2cccnc2)n1`
Completion: > 8000 nM

====

// pIC50 lookup, one value per entry
System: SNU-387
EXPERIMENTAL_PROTOCOL: cells
Format: functional, cell-based
CONDITION_NOTES: Homo sapiens
Description: SANGER: Inhibition of human SNU-387 cell growth in a cell viability assay.
pIC50: −log10 of the molar value.

Worked examples, 2 compounds total:
{"MOLECULAR_STRING": "CCCS(=O)(=O)Nc1ccc(F)c(C(=O)c2c[nH]c3ncc(Cl)cc23)c1F", "TARGET_SYSTEM": "SNU-387", "pIC50": "< 5.00"}
{"MOLECULAR_STRING": "Cn1cc(/C=C2\\C(=O)Nc3cccnc32)c2ccccc21", "TARGET_SYSTEM": "SNU-387", "pIC50": "< 5.70"}

Proceed to the following item.
Prompt: Field: pIC50 (SNU-387). Entry: `C[C@]1(c2nc3c(C(N)=O)cccc3[nH]2)CCCN1`
Completion: < 5.30

====

Tested on: P12-Ichikawa
EXPERIMENTAL_PROTOCOL: cells
Assay type: functional, cell-based
CONDITION_NOTES: Homo sapiens
pIC50 values for the compounds below.
Bear in mind: pIC50 is minus log10 of a mol/L concentration; give just that figure.

Prompt: Please report the recorded pIC50 for `CC[C@@]1(O)C(=O)OCc2c1cc1n(c2=O)Cc2cc3ccccc3nc2-1` .
Completion: 9.99

Prompt: Also `Cn1c(=O)n(-c2ccc(C(C)(C)C#N)cc2)c2c3cc(-c4cnc5ccccc5c4)ccc3ncc21` , if possible.
Completion: 7.82

====

Test system: NCI-H2029;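 note: Read-out is a viability assay on the cultured cells, and IC50 is the concentration that suppresses cell growth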
EXPERIMENTAL_PROTOCOL: cells
Format: functional, cell-based
CONDITION_NOTES: Homo sapiens
Description: SANGER: Inhibition of human NCI-H2029 cell growth in a cell viability assay.
pIC50: −log10 of the molar value.
QUANTITY_KIND: pIC50

Example entries and their recorded answers appear below.
{"MOLECULAR_STRING": "C[C@]1(c2nc3c(C(N)=O)cccc3[nH]2)CCCN1", "pIC50": "< 5.30"}
{"MOLECULAR_STRING": "CC(=O)c1c(C)c2cnc(Nc3ccc(N4CCNCC4)cn3)nc2n(C2CCCC2)c1=O", "pIC50": "< 5.40"}
{"MOLECULAR_STRING": "CCCS(=O)(=O)Nc1ccc(F)c(C(=O)c2c[nH]c3ncc(Cl)cc23)c1F", "pIC50": "< 5.00"}

Please look at the following compound next.
Prompt: Which pIC50 is reported for this compound? `CC[C@]1(O)C[C@@H]2CN(CCc3c([nH]c4ccccc34)[C@@](C(=O)OC)(c3cc4c(cc3OC)N(C)[C@H]3[C@@](O)(C(=O)OC)[C@H](OC(C)=O)[C@]5(CC)C=CCN6CC[C@]43[C@@H]65)C2)C1`
Completion: < 7.00

====

Each record here notes measured IC50.
System: BT-20;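 note: cell viability assay measuring suppression of growth in human BT-20 cells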
EXPERIMENTAL_PROTOCOL: cells
Format: functional, cell-based
CONDITION_NOTES: Homo sapiens
Description: SANGER: Inhibition of human BT-20 cell growth in a cell viability assay.

{"MOLECULE": "C/C=C(/C)C(=O)O[C@H]1C(C)=C2[C@H]([C@@H]1OC(=O)CCCCCCC)[C@@](C)(OC(C)=O)C[C@H](OC(=O)CCC)[C@@]1(O)[C@H]2OC(=O)[C@@]1(C)O [THAPSIGARGIN]", "IC50": "> 512 nM"}
{"MOLECULE": "C[C@]12O[C@H](C[C@]1(O)CO)n1c3ccccc3c3c4c(c5c6ccccc6n2c5c31)CNC4=O [LESTAURTINIB]", "IC50": "1650 nM"}

Kindly review the next molecule as well.
Prompt: Name the recorded IC50 for `Fc1cc(-c2cc[nH]/c(=N/c3ccc(-n4cnc(N5CCOCC5)n4)cc3)n2)cc(N2CCOCC2)c1` .
Completion: 493 nM

====

System: MEG-01;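 note: growth inhibition of MEG-01 cells, read out by a cell viability assay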
EXPERIMENTAL_PROTOCOL: cells
Type: functional, cell-based
CONDITION_NOTES: Homo sapiens
Description: SANGER: Inhibition of human MEG-01 cell growth in a cell viability assay.
QUANTITY_KIND: pIC50
Notebook: values listed as pIC50 are -log10 of the concentration (mol/L).

{"MOLECULAR_STRING": "CNC(=O)c1ccccc1Sc1ccc2c(/C=C/c3ccccn3)n[nH]c2c1", "pIC50": 6.37}

Prompt: Notebook entry, MEG-01 assay: pIC50 of `COc1cc(Nc2c(C#N)cnc3cc(OCCCN4CCN(C)CC4)c(OC)cc23)c(Cl)cc1Cl` = ?
Completion: 6.29

Prompt: Check `Cc1n[nH]c2ccc(-c3cncc(OC[C@@H](N)Cc4c[nH]c5ccccc45)c3)cc12` too.
Completion: 6.09

Prompt: Do the same for `NC(=O)c1ncn([C@@H]2O[C@H](COP(=O)(O)O)[C@@H](O)[C@H]2O)c1N` please
Completion: 3.35

Prompt: `C[C@]12O[C@H](C[C@]1(O)CO)n1c3ccccc3c3c4c(c5c6ccccc6n2c5c31)CNC4=O` ?
Completion: 6.34

====

Tested on: SW1783;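 note: cell growth inhibition measured with a viability assay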
EXPERIMENTAL_PROTOCOL: cells
Format: functional, cell-based
CONDITION_NOTES: Homo sapiens
Description: SANGER: Inhibition of human SW1783 cell growth in a cell viability assay.
pIC50: −log10 of the molar value.
QUANTITY_KIND: pIC50

Worked examples follow.
{"COMPOUND": "CC(=O)c1c(C)c2cnc(Nc3ccc(N4CCNCC4)cn3)nc2n(C2CCCC2)c1=O [PALBOCICLIB]", "TARGET_SYSTEM": "SW1783", "pIC50": "< 5.40"}
{"COMPOUND": "COc1cc(Nc2c(C#N)cnc3cc(OCCCN4CCN(C)CC4)c(OC)cc23)c(Cl)cc1Cl [BOSUTINIB]", "TARGET_SYSTEM": "SW1783", "pIC50": "< 5.70"}
{"COMPOUND": "CCCS(=O)(=O)Nc1ccc(F)c(C(=O)c2c[nH]c3ncc(Cl)cc23)c1F [PLX-4720]", "TARGET_SYSTEM": "SW1783", "pIC50": "< 5.00"}

Okay, next one:
Prompt: Which value of pIC50 has been reported for CCNC(=O)c1noc(-c2cc(C(C)C)c(O)cc2O)c1-c1ccc(CN2CCOCC2)cc1 [LUMINESPIB] in the records?
Completion: 8.23

====

Test system: NCI-H187;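 note: growth inhibition of NCI-H187 cells, read out as cell viability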
EXPERIMENTAL_PROTOCOL: cells
Assay type: functional, cell-based
CONDITION_NOTES: Homo sapiens
Description: SANGER: Inhibition of human NCI-H187 cell growth in a cell viability assay.
IC50 overview

{"MOLECULAR_STRING": "Cc1n[nH]c2ccc(-c3cncc(OC[C@@H](N)Cc4c[nH]c5ccccc45)c3)cc12", "IC50": "0.464 µM"}
{"MOLECULAR_STRING": "Cc1[nH]c(/C=C2\\C(=O)Nc3ccc(S(=O)(=O)Cc4c(Cl)cccc4Cl)cc32)c(C)c1C(=O)N1CCC[C@@H]1CN1CCCC1", "IC50": "> 2 µM"}
{"MOLECULAR_STRING": "CCNC(=O)c1noc(-c2cc(C(C)C)c(O)cc2O)c1-c1ccc(CN2CCOCC2)cc1", "IC50": "> 0.256 µM"}
{"MOLECULAR_STRING": "Cc1ccc(NC(=O)c2cccc(C(C)(C)C#N)c2)cc1Nc1ccc2ncn(C)c(=O)c2c1", "IC50": "> 4 µM"}

Prompt: Record request: IC50 value, item `Fc1cc(-c2cc[nH]/c(=N/c3ccc(-n4cnc(N5CCOCC5)n4)cc3)n2)cc(N2CCOCC2)c1`
Completion: 2.79 µM

====

Attribute: pIC50
System: NCI-H2196;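 note: cell viability assay used as the readout of growth inhibition in NCI-H2196 cells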
EXPERIMENTAL_PROTOCOL: cells
Assay type: functional, cell-based
CONDITION_NOTES: Homo sapiens
Description: SANGER: Inhibition of human NCI-H2196 cell growth in a cell viability assay.
pIC50: −log10 of the molar value.

Reference set, count: 3
{"MOLECULE": "C/C(O)=C(\\C#N)C(=O)Nc1cc(Br)ccc1Br", "TARGET_SYSTEM": "NCI-H2196", "pIC50": "< 4.80"}
{"MOLECULE": "CCNc1cc(N[C@H]2CC[C@@H](O)CC2)nc(Nc2ccc3c(ccn3Cc3ccccc3)c2)n1", "TARGET_SYSTEM": "NCI-H2196", "pIC50": "< 5.29"}
{"MOLECULE": "Fc1cc(-c2cc[nH]/c(=N/c3ccc(-n4cnc(N5CCOCC5)n4)cc3)n2)cc(N2CCOCC2)c1", "TARGET_SYSTEM": "NCI-H2196", "pIC50": 6.10}

Note: attention shifts to another entry.
Prompt: May I ask what pIC50 has been recorded for CCn1c(-c2nonc2N)nc2cnc(Oc3cccc(NC(=O)c4ccc(OCCN5CCOCC5)cc4)c3)cc21 [GSK-269962A] ?
Completion: < 5.60
